- Assay details: self-splicing fitness, log relative to wild type (ln ratio); higher = more splicing; Tetrahymena group I intron in knt gene, E. coli kanamycin selection, DiMSum; sequences stand for … in CUCUCU…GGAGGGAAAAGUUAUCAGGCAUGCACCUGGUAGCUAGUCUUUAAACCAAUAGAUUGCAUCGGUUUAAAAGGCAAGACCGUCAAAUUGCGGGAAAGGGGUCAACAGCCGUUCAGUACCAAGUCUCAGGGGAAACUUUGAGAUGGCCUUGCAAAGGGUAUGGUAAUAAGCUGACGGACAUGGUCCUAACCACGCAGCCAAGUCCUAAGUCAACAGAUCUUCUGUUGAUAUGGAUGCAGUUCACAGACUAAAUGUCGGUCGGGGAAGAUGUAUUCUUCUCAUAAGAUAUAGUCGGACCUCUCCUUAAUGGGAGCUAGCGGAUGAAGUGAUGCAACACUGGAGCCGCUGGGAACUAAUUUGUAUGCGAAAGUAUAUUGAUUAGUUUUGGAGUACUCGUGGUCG;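 further: selection with 25 µg/mL kanamycin versus none on LB agar overnight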
- Study conditions: 37 °C
Note that class boundaries on self-splicing fitness (ln) are bucket A (below -2), bucket B (-2 to below -1), bucket C (-1 or more)

Recorded results for 3 sequences are shown here.
Field: class (self-splicing fitness (ln)) — entry: `UAUCAGCAAUAUUACGCGAC` bucket A

Field: class (self-splicing fitness (ln)) — entry: `GCGCAGCAAUAUUACGCUUC` bucket C

Field: class (self-splicing fitness (ln)) — entry: `GAACAGCAAUAUUACGAUGU` bucket C

Further cases:
Field: class (self-splicing fitness (ln)) — entry: `AGUCAGCAAUAUUACGUGCG` bucket C

Field: class (self-splicing fitness (ln)) — entry: `GUGGAGCAAUAUUACGUAUC` bucket C

Field: class (self-splicing fitness (ln)) — entry: `CCGCAGCAAUAUUACGGCGG` bucket A

Field: class (self-splicing fitness (ln)) — entry: `ACGGAGCAAUAUUACGCAGU` bucket A

Field: class (self-splicing fitness (ln)) — entry: `CGUAAGCAAUAUUACGCCGU` bucket A

Field: class (self-splicing fitness (ln)) — entry: `CCUGAGCAAUAUUACGGAGU` bucket B

====

- Assay details: self-splicing fitness, log relative to wild type (ln ratio); higher = more splicing; Tetrahymena group I intron in knt gene, E. coli kanamycin selection, DiMSum; sequences stand for … in CUCUCU…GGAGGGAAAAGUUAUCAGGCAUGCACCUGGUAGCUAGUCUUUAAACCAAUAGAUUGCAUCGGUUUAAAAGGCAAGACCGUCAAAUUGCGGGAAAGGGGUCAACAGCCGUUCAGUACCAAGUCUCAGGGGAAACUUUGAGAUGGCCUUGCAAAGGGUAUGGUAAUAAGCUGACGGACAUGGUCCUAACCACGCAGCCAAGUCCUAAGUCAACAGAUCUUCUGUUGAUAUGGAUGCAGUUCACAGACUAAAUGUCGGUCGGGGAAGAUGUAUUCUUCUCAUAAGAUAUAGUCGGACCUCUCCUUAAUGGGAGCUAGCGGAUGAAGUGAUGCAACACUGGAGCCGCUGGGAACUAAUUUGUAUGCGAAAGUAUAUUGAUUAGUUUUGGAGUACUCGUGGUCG
- Study conditions: 37 °C
Measurement name: self-splicing fitness (ln)
Write no unit; give the number alone.

Worked examples follow.
// self-splicing fitness (ln) lookup, key: `CAGCAGCAAUAUUACGUAUA` -2.81

// self-splicing fitness (ln) lookup, key: `GAAAAGCAAUAUUACGGUCC` -0.588

// self-splicing fitness (ln) lookup, key: `UGGGAGCAAUAUUACGCAUG` -0.201

Further cases:
// self-splicing fitness (ln) lookup, key: `ACCAAGCAAUAUUACGCGUC` -2.46

// self-splicing fitness (ln) lookup, key: `CGACAGCAAUAUUACGUCGC` -3.74

// self-splicing fitness (ln) lookup, key: `AUCCAGCAAUAUUACGCAAG` 0.207

// self-splicing fitness (ln) lookup, key: `GGUCAGCAAUAUUACGACAU` 0.148

// self-splicing fitness (ln) lookup, key: `GCCUAGCAAUAUUACGUGCG` -0.358

// self-splicing fitness (ln) lookup, key: `UUUUAGCAAUAUUACGCUGG` -2.88

// self-splicing fitness (ln) lookup, key: `GUAAAGCAAUAUUACGCACA` 0.579

// self-splicing fitness (ln) lookup, key: `GCACAGCAAUAUUACGCUUC` -1.3

// self-splicing fitness (ln) lookup, key: `AGUCAGCAAUAUUACGUCCC` 0.485

// self-splicing fitness (ln) lookup, key: `GGGGAGCAAUAUUACGCGAA` 0.457

// self-splicing fitness (ln) lookup, key: `UCAGAGCAAUAUUACGUUAU` -3.42

// self-splicing fitness (ln) lookup, key: `CCGGAGCAAUAUUACGCGCA` -2.29

====

- Assay details: self-splicing fitness, log relative to wild type (ln ratio); higher = more splicing; Tetrahymena group I intron in knt gene, E. coli kanamycin selection, DiMSum; sequences stand for … in CUCUCU…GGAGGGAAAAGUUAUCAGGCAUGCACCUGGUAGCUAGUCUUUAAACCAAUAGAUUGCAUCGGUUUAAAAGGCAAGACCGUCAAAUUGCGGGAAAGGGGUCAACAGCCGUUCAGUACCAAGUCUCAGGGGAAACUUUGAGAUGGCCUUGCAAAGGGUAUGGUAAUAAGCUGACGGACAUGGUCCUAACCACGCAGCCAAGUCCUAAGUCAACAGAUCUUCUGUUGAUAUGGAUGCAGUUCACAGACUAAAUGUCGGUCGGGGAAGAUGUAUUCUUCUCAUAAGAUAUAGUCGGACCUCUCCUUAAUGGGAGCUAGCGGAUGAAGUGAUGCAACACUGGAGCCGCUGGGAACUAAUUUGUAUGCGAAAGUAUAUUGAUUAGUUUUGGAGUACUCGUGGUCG
- Study conditions: 30 °C
Measurement name: self-splicing fitness (ln)
Write no unit; give the number alone.

Worked examples follow.
// self-splicing fitness (ln) lookup, key: `GUUCAGCAAUAUUACGAAUA` -1.01

// self-splicing fitness (ln) lookup, key: `GGCGAGCAAUAUUACGCUGG` -1.39

// self-splicing fitness (ln) lookup, key: `GCACAGCAAUAUUACGCACG` -2.06

// self-splicing fitness (ln) lookup, key: `CAUCAGCAAUAUUACGGAGG` -1.24

// self-splicing fitness (ln) lookup, key: `CGCCAGCAAUAUUACGCUAU` -3.43

// self-splicing fitness (ln) lookup, key: `UUGUAGCAAUAUUACGAGAA` -1.54

// next item, self-splicing fitness (ln) requested
// self-splicing fitness (ln) lookup, key: `GCAGAGCAAUAUUACGAACA` -3.11

====

- Assay details: self-splicing fitness, log relative to wild type (ln ratio); higher = more splicing; Tetrahymena group I intron in knt gene, E. coli kanamycin selection, DiMSum; sequences stand for … in CUCUCU…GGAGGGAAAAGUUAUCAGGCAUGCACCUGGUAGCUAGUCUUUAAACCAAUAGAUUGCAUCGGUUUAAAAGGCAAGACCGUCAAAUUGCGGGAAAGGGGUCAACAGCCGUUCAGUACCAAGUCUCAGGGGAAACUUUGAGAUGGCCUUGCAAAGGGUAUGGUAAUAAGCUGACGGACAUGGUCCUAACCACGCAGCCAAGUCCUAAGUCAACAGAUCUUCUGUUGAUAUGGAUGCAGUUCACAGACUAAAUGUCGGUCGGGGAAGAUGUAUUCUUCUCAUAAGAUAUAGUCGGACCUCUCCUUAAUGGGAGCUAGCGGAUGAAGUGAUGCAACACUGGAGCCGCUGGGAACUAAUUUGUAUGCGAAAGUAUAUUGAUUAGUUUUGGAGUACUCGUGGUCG
- Study conditions: 30 °C
Could you label it criterion met if measured self-splicing fitness (ln) is -2 or higher, and criterion not met otherwise?

Recorded results for 5 sequences are shown here.
In plain terms: is recorded self-splicing fitness (ln) at least -2 for `AUAUAGCAAUAUUACGAAAA` ? criterion not met

In plain terms: is recorded self-splicing fitness (ln) at least -2 for `UACUAGCAAUAUUACGGUUG` ? criterion not met

In plain terms: is recorded self-splicing fitness (ln) at least -2 for `AGCUAGCAAUAUUACGCCCA` ? criterion met

In plain terms: is recorded self-splicing fitness (ln) at least -2 for `UAGGAGCAAUAUUACGUCCA` ? criterion met

In plain terms: is recorded self-splicing fitness (ln) at least -2 for `UUGAAGCAAUAUUACGUACA` ? criterion met

Further cases:
In plain terms: is recorded self-splicing fitness (ln) at least -2 for `AGCCAGCAAUAUUACGGGAU` ? criterion not met

In plain terms: is recorded self-splicing fitness (ln) at least -2 for `UAGCAGCAAUAUUACGCAUA` ? criterion met

In plain terms: is recorded self-splicing fitness (ln) at least -2 for `CCUUAGCAAUAUUACGACAA` ? criterion not met

In plain terms: is recorded self-splicing fitness (ln) at least -2 for `UUGUAGCAAUAUUACGAGCC` ? criterion met

In plain terms: is recorded self-splicing fitness (ln) at least -2 for `UCUGAGCAAUAUUACGGCGU` ? criterion met

In plain terms: is recorded self-splicing fitness (ln) at least -2 for `AGAUAGCAAUAUUACGUAUU` ? criterion not met

In plain terms: is recorded self-splicing fitness (ln) at least -2 for `UUCCAGCAAUAUUACGUCAC` ? criterion not met

In plain terms: is recorded self-splicing fitness (ln) at least -2 for `UGGUAGCAAUAUUACGCUCU` ? criterion not met

In plain terms: is recorded self-splicing fitness (ln) at least -2 for `GAAAAGCAAUAUUACGUGCU` ? criterion met
